Target Desc: JAK2 kinase activity on STAT5 in TF1 cells (Homo sapiens)
Sequence (O60674 whole entry): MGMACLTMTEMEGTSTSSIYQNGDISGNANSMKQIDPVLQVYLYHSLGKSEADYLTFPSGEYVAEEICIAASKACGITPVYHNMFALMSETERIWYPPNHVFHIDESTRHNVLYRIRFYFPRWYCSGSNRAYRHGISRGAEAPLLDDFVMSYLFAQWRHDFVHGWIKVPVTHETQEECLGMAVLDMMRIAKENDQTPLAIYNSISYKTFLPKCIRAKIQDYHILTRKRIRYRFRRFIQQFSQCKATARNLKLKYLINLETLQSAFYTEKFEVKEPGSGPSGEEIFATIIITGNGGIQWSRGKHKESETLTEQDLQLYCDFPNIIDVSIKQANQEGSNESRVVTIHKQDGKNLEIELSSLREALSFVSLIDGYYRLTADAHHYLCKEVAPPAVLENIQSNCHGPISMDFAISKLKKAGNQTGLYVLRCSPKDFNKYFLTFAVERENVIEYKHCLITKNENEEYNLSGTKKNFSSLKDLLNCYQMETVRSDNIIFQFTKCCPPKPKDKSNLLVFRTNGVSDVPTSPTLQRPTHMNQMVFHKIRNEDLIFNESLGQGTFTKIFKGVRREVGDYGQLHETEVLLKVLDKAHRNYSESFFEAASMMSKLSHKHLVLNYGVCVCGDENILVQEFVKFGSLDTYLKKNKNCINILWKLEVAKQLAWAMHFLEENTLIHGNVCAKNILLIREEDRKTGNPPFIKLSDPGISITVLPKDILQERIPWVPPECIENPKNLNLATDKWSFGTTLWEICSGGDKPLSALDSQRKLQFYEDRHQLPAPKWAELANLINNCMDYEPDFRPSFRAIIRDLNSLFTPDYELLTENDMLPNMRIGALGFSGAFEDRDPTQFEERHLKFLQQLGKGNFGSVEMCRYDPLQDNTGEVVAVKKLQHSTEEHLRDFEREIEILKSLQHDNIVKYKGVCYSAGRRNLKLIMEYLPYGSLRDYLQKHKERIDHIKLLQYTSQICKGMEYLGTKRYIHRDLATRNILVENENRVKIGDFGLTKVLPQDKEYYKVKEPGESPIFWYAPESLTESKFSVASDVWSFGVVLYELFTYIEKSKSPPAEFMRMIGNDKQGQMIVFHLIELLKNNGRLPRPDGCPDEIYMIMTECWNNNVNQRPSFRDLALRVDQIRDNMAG
Procedure Text: pSTAT5 cell assay (MSD; TF1 cells, 30 ng/mL IL-3 stimulation)
Study Conditions: 30 ng/mL IL-3, 15 minutes
pIC50: −log10 of the molar value. Structures can show the parent of a compound that is named as a salt.
Endpoint Label: pIC50

Below: 6 molecules and their reported pIC50.
{"Molecule": "C[C@@H]1CN(c2nc(-c3cnn([C@H]4C[C@@H](C#N)C4)c3)cn3ncc(F)c23)C(=O)[C@]1(C#N)C1CC1", "Target Desc": "JAK2 kinase activity on STAT5 in TF1 cells (Homo sapiens)", "Endpoint Label": "pIC50", "Measured Value": "6.00 to 7.00"}
{"Molecule": "C[C@@H]1CN(c2nc(-c3cnn(C4CC5(COC5)C4)c3)cn3nccc23)C(=O)[C@]1(C#N)C1CC1", "Target Desc": "JAK2 kinase activity on STAT5 in TF1 cells (Homo sapiens)", "Endpoint Label": "pIC50", "Measured Value": "> 7.00"}
{"Molecule": "C[C@@H]1CN(c2nc(-c3cnn4c3COCC4)cn3ncc(F)c23)C(=O)[C@]1(C#N)C1CC1", "Target Desc": "JAK2 kinase activity on STAT5 in TF1 cells (Homo sapiens)", "Endpoint Label": "pIC50", "Measured Value": "< 5.00"}
{"Molecule": "C[C@@H]1CN(c2ccnc3cc(-c4cnn(C5CC5)c4)oc23)C(=O)[C@]1(C#N)C1CC1", "Target Desc": "JAK2 kinase activity on STAT5 in TF1 cells (Homo sapiens)", "Endpoint Label": "pIC50", "Measured Value": "5.00 to 5.30"}
{"Molecule": "Cc1cnc(-c2cc3c(N4C[C@@H](C)[C@@](C#N)(C5CC5)C4=O)ccnn3c2)s1 [Example 118, trifluoroacetate]", "Target Desc": "JAK2 kinase activity on STAT5 in TF1 cells (Homo sapiens)", "Endpoint Label": "pIC50", "Measured Value": "< 5.00"}
{"Molecule": "C[C@@H]1CN(c2nc(-c3cnn([C@H]4C[C@H](C#N)C4)c3)cn3ncc(F)c23)C(=O)[C@]1(C#N)C1CC1", "Target Desc": "JAK2 kinase activity on STAT5 in TF1 cells (Homo sapiens)", "Endpoint Label": "pIC50", "Measured Value": "6.00 to 7.00"}

Give pIC50 for each of the items listed below.
1. C[C@@H]1CN(c2nc(-c3cnn([C@H]4C[C@@](F)(C#N)C4)c3)cn3ncc(F)c23)C(=O)[C@]1(C#N)C1CC1
2. C[C@@H]1CN(c2nc(-c3ccc4nccn4c3)cn3nccc23)C(=O)[C@]1(C#N)C1CC1 [Example 263, trifluoroacetate]
3. Cc1nc(-c2cn3nccc3c(N3C[C@@H](C)[C@@](C#N)(C4CC4)C3=O)n2)cs1
4. C[C@@H]1CN(c2ccnn3cc(-c4cn[nH]c4)cc23)C(=O)[C@]1(C#N)C1CC1 [Example 59, trifluoroacetate]
5. C[C@@H]1CN(c2ccnn3cc(-c4ccc5cncn5c4)cc23)C(=O)[C@]1(C#N)C1CC1
6. C[C@@H]1CN(c2nc(-c3cnn(C(F)F)c3)cn3ncc(F)c23)C(=O)[C@]1(C#N)C1CC1
7. Cn1cc(-c2cc3c(N4CC[C@@](C#N)(C5CC5)C4=O)ccnn3c2)cn1
8. C[C@@H]1CN(c2ccnn3cc(-c4cnn(C5CC5)c4)cc23)C(=O)[C@]1(C#N)C1CC1

1. 5.30 to 6.00
2. 6.00 to 7.00
3. 5.00 to 5.30
4. 5.00 to 5.30
5. < 5.00
6. 5.30 to 6.00
7. 5.00 to 5.30
8. 5.30 to 6.00
